target-or-system: Indoleamine 2,3-dioxygenase 1 (Homo sapiens)
assay-protocol: Inhibition of human IDO1 by human whole blood assay
Type: tissue-based
Entries and their measured IC50 follow.
In your response, put the unit directly after the numeric value.

These solved cases illustrate the format of a correct answer.
*Q* Given the entry O=C(C1CC1)N1CCc2nc(C3(C(=O)Nc4ccc(F)cc4)CCC3)ccc21 , report its measured IC50.
*A* 330 nM

*Q* Given the entry Cc1nccc(N2c3ccc(C4(NC(=O)c5ccc(F)cc5)CC4)cc3[C@H]3CC[C@H]32)n1 , report its measured IC50.
*A* 64 nM

*Q* Given the entry O=C(Nc1ccc(Cl)cc1)C1(c2ccc3c(c2)CCN3c2ccccn2)CCC1 , report its measured IC50.
*A* 640 nM

# input for lookup
*Q* Given the entry Cc1nccc(N2c3ccc(C4(NC(=O)c5ccc(F)cc5)CC4)cc3[C@@H]3CC[C@@H]32)n1 , report its measured IC50.
*A* 66 nM

---

target-or-system: Indoleamine 2,3-dioxygenase 1 (Homo sapiens)
assay-protocol: Inhibition of human IDO1 in human Hela cells
Format: cell-based
attribute-measured: pIC50
The meaning of pIC50 here: minus log10 of the concentration in molar units.

These solved cases illustrate the format of a correct answer.
*Q* What is its pIC50 for Indoleamine 2,3-dioxygenase 1 (Homo sapiens)? Entry: O=C(NC1(c2ccc3c(n2)CCN3C(=O)OC2CC2)CC1)c1ccc(Cl)cc1
*A* 8.39

*Q* What is its pIC50 for Indoleamine 2,3-dioxygenase 1 (Homo sapiens)? Entry: O=C(NC1(c2ccc3c(n2)CCN3C(=O)OC2CC2)CCC1)c1ccc(Cl)cc1
*A* 8.35

*Q* What is its pIC50 for Indoleamine 2,3-dioxygenase 1 (Homo sapiens)? Entry: O=C(Nc1ccc(Cl)cc1)C1(c2ccc3c(n2)CCN3c2ccccn2)CCC1
*A* 8.64

New cases:
*Q* What is its pIC50 for Indoleamine 2,3-dioxygenase 1 (Homo sapiens)? Entry: COC(=O)N1c2ccc(C3(NC(=O)c4ccc(F)cc4)CC3)cc2[C@H]2CC[C@H]21
*A* 8.55

*Q* What is its pIC50 for Indoleamine 2,3-dioxygenase 1 (Homo sapiens)? Entry: Cc1nccc(N2CCc3cc(C4(C(=O)Nc5ccc(F)cc5)CCC4)ccc32)n1
*A* 8.28

*Q* What is its pIC50 for Indoleamine 2,3-dioxygenase 1 (Homo sapiens)? Entry: O=C(NC1(c2ccc3c(n2)C2(CC2)CN3C(=O)OC2CC2)CC1)c1ccc(F)cc1
*A* 7.92

*Q* What is its pIC50 for Indoleamine 2,3-dioxygenase 1 (Homo sapiens)? Entry: Cc1nccc(N2c3ccc(C4(NC(=O)c5ccc(F)cc5)CC4)cc3[C@H]3C[C@H]32)n1
*A* 8.54

*Q* What is its pIC50 for Indoleamine 2,3-dioxygenase 1 (Homo sapiens)? Entry: Cc1nccc(N2c3ccc(C4(NC(=O)c5ccc(F)cc5)CC4)cc3[C@@H]3C[C@@H]32)n1
*A* 8.09

*Q* What is its pIC50 for Indoleamine 2,3-dioxygenase 1 (Homo sapiens)? Entry: COC(=O)N1c2ccc(C3(NC(=O)c4ccc(F)cc4)CC3)cc2[C@@H]2CC[C@@H]21
*A* 8.25

*Q* What is its pIC50 for Indoleamine 2,3-dioxygenase 1 (Homo sapiens)? Entry: COCCOC(=O)N1CCc2nc(C3(NC(=O)c4ccc(Cl)cc4)CCC3)ccc21
*A* 8.16

---

target-or-system: Indoleamine 2,3-dioxygenase 1 (Homo sapiens, UniProt P14902)
Sequence (P14902 whole entry): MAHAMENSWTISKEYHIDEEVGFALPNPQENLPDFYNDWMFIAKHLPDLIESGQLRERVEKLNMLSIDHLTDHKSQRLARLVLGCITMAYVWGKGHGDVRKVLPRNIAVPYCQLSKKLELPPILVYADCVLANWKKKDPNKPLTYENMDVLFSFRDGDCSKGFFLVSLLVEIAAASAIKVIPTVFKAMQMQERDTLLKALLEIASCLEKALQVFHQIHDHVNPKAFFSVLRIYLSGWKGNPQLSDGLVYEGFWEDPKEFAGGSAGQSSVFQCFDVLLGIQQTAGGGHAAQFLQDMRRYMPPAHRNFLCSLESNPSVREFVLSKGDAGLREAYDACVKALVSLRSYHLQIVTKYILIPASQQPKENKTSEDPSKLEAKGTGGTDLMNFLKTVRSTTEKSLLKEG
assay-protocol: Inhibition of human IDO1 in human Hela cells
Assay type: cell-based
Entries and their measured pIC50 follow.
The meaning of pIC50 here: minus log10 of the concentration in molar units.

These solved cases illustrate the format of a correct answer.
*Q* Given the entry O=C(Nc1ccc(Cl)cc1)C1(c2ccc3c(c2)CCN3c2ccccn2)CCC1 , report its measured pIC50.
*A* 8.80

*Q* Given the entry Cc1nccc(N2CCc3nc(C4(C(=O)Nc5ccc(F)cc5)CCC4)ccc32)n1 , report its measured pIC50.
*A* 7.68

New cases:
*Q* Given the entry Cc1nccc(N2CCc3nc(C4(C(=O)Nc5ccc(Cl)cc5)CCC4)ccc32)n1 , report its measured pIC50.
*A* 7.90
